conditions: in methanol, 318.15 K
Outcome Measure: solubility (mole fraction)

[in] Looking for the measured solubility (mole fraction) of NC(=NCCCCCCN=C(N)/N=C(\N)Nc1ccc(Cl)cc1)/N=C(\N)Nc1ccc(Cl)cc1 , can you help?
[out] 0.00154

====

details: in DMF, 298.15 K
Outcome Measure: solubility (mole fraction)
Give the figure only, with no unit attached.

[in] Looking for the measured solubility (mole fraction) of NC(=NCCCCCCN=C(N)/N=C(\N)Nc1ccc(Cl)cc1)/N=C(\N)Nc1ccc(Cl)cc1 , can you help?
[out] 0.0131

====

settings: in water, 313.15 K
Outcome Measure: solubility (mole fraction)
Give the figure only, with no unit attached.

[in] Looking for the measured solubility (mole fraction) of NC(=NCCCCCCN=C(N)/N=C(\N)Nc1ccc(Cl)cc1)/N=C(\N)Nc1ccc(Cl)cc1 , can you help?
[out] 9.32e-06
